Experiment: qHTS Assay for Lipid Storage Modulators in Drosophila S3 Cells
Conditions: BODIPY lipid droplet fluorescence, 18-24 h, cells fed with added oleic acid; series mostly up to 46.1 µM
Source text: NIH Molecular Libraries Probe Production Centers Network [MLPCN] NIH Chemical Genomics Center [NCGC] […] Triacsin C (Sigma-Aldrich T-4540), an inhibitor of long-chain fatty acyl CoA synthetase that blocks synthesis of triglycerides, was used as a positive control for lipid under-storage. […] Fluorescence was detected by excitation of the fluorophores with a 488-nm laser on an Acumen Explorer (TTP Lab Tech). […] Cells were detected using channel 3 (575-640 nm) with 5-um width and 100-um depth filters. […]
Among all 320,000 compounds or so, about 2,100 (0.66%) were called active. Roughly 53% stayed inconclusive and do not appear here. The call rests on the fitted dose curve; in most records, active means well fitted inhibition curve with a large enough effect in the signal ratio, with a control signal flat (not every such curve was filed as active); inconclusive means small, poorly fitted or top-dose-only effect, or effect the other way, or a change in a side signal; inactive means flat fitted curve, though single readings scatter; the % refers to the signal ratio. This is one part of a sample in which actives are shown more often than they occur.
# valid calls are YES = active, NO = inactive; nothing else

Dear all, I need the recorded test outcome for "COc1cc(S(=O)(=O)NCc2ccncc2)c(OC)cc1Cl" , thank you.
NO

# fetch the recorded call for "CCOc1cc(/C=C2\SC(=Nc3ccc(F)cc3)N(c3ccc(F)cc3)C2=O)ccc1OCC(=O)O" here
NO

Hi, do you know how "Cc1ccc(N=Cc2ccc(O)cc2O)cc1F" came out in this test?
NO

Given "Cc1c(N(C(=O)c2cnccn2)C2(C(=O)NC3CCCC3)CCCCC2)c(=O)n(-c2ccccc2)n1C" , state the outcome it received in this test.
NO

# lookup: test call for "COc1cc(S(=O)(=O)NCc2ccncc2)c(OC)cc1Br"
YES

Called result for "COc1cc(C)c(Cl)cc1S(=O)(=O)NCc1ccncc1"
NO

----------
Assay: qHTS Assay for Lipid Storage Modulators in Drosophila S3 Cells
Settings: BODIPY lipid droplet fluorescence, 18-24 h, cells fed with added oleic acid; series mostly up to 46.1 µM
Excerpt: NIH Molecular Libraries Probe Production Centers Network [MLPCN] NIH Chemical Genomics Center [NCGC] […] Triacsin C (Sigma-Aldrich T-4540), an inhibitor of long-chain fatty acyl CoA synthetase that blocks synthesis of triglycerides, was used as a positive control for lipid under-storage. […] Fluorescence was detected by excitation of the fluorophores with a 488-nm laser on an Acumen Explorer (TTP Lab Tech). […] Cells were detected using channel 3 (575-640 nm) with 5-um width and 100-um depth filters. […]
The campaign covered roughly 320,000 compounds. About 2,100 (0.66%) were called active. Inconclusive results (about 53%) are left out. The call rests on the fitted dose curve; in most records, active means well fitted inhibition curve with a large enough effect in the signal ratio, with a control signal flat (not every such curve was filed as active); inconclusive means small, poorly fitted or top-dose-only effect, or effect the other way, or a change in a side signal; inactive means flat fitted curve, though single readings scatter; the % refers to the signal ratio. Many of the other results were omitted from the sample, so actives are more common in it than they were.
Mark one answer only. Choices: 1 = active, 0 = inactive

What was the test verdict on CC1Cc2ccccc2N1C(=O)COC(=O)C1=COCCO1 (stereo not drawn) ?
0

Check the results log: what was the call for CCOC(=O)C1CCN(C(c2cccc(F)c2)c2sc3nc(C)nn3c2O)CC1 (stereo not drawn) ?
0

Assay result, entry "CNc1c(NS(=O)(=O)c2ccc(OC)c(Cl)c2)c(=O)oc2ccccc12" — outcome?
1

Short answer needed: outcome of this test for "CCC(=O)Nc1ccc(S(=O)(=O)Nc2c(NC)c3ccccc3oc2=O)cc1" ?
1

Can you look up the reported call for "CCCNc1c(NS(=O)(=O)c2ccc(C)c(C)c2)c(=O)oc2ccccc12" for me?
1

# lookup: test call for "O=C(Nc1ccc(Oc2cccnc2)cc1)C1CCN(Cc2cccc(Cl)c2)CC1"
0

For "Cc1nnc2c(NC3CCCC3)nc3ccccc3n12" , which call appears in the assay record?
0

Fill in: this test's call for "CCc1cc(=O)oc2c(C)c(OCC(=O)N3CCC(C(=O)O)CC3)ccc12" is ___
0

Name the outcome recorded for "COc1ccccc1/C=C/C(=O)c1ccc(Cl)cc1" in the assay.
1

Test call, this molecule: "CC(=O)Nc1ccc(S(=O)(=O)Nc2c(NC3CCCCC3)c3ccccc3oc2=O)cc1"
0

Called result for "CC(=O)c1sc(Nc2ccc(C)cc2)nc1C"
0

For this molecule, state the assay outcome: "Cc1ccc(S(=O)(=O)N2CCN(C(=O)CSc3ncn[nH]3)CC2)cc1"
1

Hi, do you know how "CNc1c(NS(=O)(=O)c2cc(OC)ccc2OC)c(=O)oc2ccccc12" came out in this test?
0

Would you mind telling me which call this test gave "CCCNc1c(NS(=O)(=O)c2ccc3c(c2)CCCC3)c(=O)oc2ccccc12" ?
0

Identify the outcome logged in this assay for the molecule shown: "COc1ccccc1/C=C/C(C)=O"
0

// return assay outcome for "COc1ccc(/C=C/C(=O)c2ccc(Cl)cc2)c(OC)c1"
0

Which outcome was assigned to "COc1ccccc1/C=C/C(=O)Nc1cccnc1" in this test?
1

So what was the verdict on "CCOc1ccc(C(=O)NCC(=O)OCc2ccc(F)cc2Cl)cc1" in this test?
0

I would be grateful if you could indicate the recorded call for "COC(=O)/C=C/C(=O)Nc1cccnc1" .
0

// param item: "O=C(O)CCC(=O)Nc1ccc(S(=O)(=O)c2ccc(NC(=O)CCC(=O)O)cc2)cc1" ; yields the recorded call
0

Could you kindly confirm the outcome this assay logged for "O=C(CN1C(=O)c2ccccc2C1=O)Nc1ccc(-c2nc3ccccc3o2)cc1" ?
0

State the result this test recorded for "CC(=O)Nc1ccc(S(=O)(=O)c2ccc(C)cc2)cc1" .
0

Test call for this molecule, please: "O=C(CSc1ncn[nH]1)N1CCN(S(=O)(=O)c2ccccc2)CC1"
0

Each recorded value in this set is attributed to PubChem BioAssay AID2685.
